Recorded values, source ChEMBL document CHEMBL1134604.

# system name: Adenosine receptor A2b (Homo sapiens, UniProt P29275)
# Sequence (P29275 whole entry): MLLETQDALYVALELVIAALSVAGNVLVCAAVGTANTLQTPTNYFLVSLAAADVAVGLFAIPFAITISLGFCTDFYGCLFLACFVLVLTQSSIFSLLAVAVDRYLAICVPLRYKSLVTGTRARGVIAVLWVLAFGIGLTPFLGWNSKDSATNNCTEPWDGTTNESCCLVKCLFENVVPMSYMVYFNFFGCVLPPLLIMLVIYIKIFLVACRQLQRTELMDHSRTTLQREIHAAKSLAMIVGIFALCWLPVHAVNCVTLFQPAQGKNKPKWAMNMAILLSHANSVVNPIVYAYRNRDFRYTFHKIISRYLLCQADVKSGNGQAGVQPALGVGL
# test protocol: Inhibitory activity on NECA-induced cyclic-AMP accumulation in CHO-K1 cells expressing human Adenosine A2B receptor
# Type: functional, cell-based
Kindly state log10 of IC50 for each of the entries shown.
Values reflect log10 of reported IC50 (µM).

**Q:** Please look up its log10 of IC50: `Cn1c(-c2cccc(F)c2)nc2c(N)nc(C#CC3(O)CCCCCC3)nc21`
**A:** -1.31

**Q:** Please look up its log10 of IC50: `Cn1c(=O)c2[nH]c(-c3ccccc3)nc2n(C)c1=O`
**A:** -0.68

**Q:** Please look up its log10 of IC50: `Cn1c(-c2cccc(F)c2)nc2c(N)nc(C#CC3(O)CCCC3)nc21`
**A:** -1.20

**Q:** Please look up its log10 of IC50: `Cn1c(-c2cccc(C(F)(F)F)c2)nc2c(N)nc(C#CC3(O)CCCCC3)nc21`
**A:** 0.75

**Q:** Please look up its log10 of IC50: `CCCn1c(=O)c2c(nc(/C=C/c3ccc(OC)c(OC)c3)n2C)n(CCC)c1=O`
**A:** 0.18

**Q:** Please look up its log10 of IC50: `Cn1c(-c2cccc(C#N)c2)nc2c(N)nc(C#CC3(O)CCCCC3)nc21`
**A:** -1.14

**Q:** Please look up its log10 of IC50: `Cn1c(-c2cccc(F)c2)nc2c(N)nc(C#CC(C)(C)O)nc21`
**A:** -0.82

**Q:** Please look up its log10 of IC50: `Cn1c(-c2cccc(F)c2)nc2c(N)nc(C#CC3(O)CCCCC3)nc21`
**A:** -1.64

**Q:** Please look up its log10 of IC50: `CCC(O)(C#Cc1nc(N)c2nc(-c3cccc(F)c3)n(C)c2n1)CC`
**A:** -0.85

**Q:** Please look up its log10 of IC50: `Cn1c(-c2ccc(F)cc2)nc2c(N)nc(C#CC3(O)CCCCC3)nc21`
**A:** -0.80

* * *

Kindly state IC50 for each of the entries shown.
# system name: Adenosine receptor A2b (Homo sapiens, UniProt P29275)
# test protocol: Inhibitory activity on NECA-induced cyclic-AMP accumulation in CHO-K1 cells expressing human Adenosine A2B receptor
# Assay type: functional, cell-based
Entry rule: numbers only, all in nM.

**Q:** Please look up its IC50: `Cn1c(-c2ccco2)nc2c(N)nc(C#CC3(O)CCCCC3)nc21`
**A:** 14

**Q:** Please look up its IC50: `COC(=O)C1=C2C=CN(C)C=C2c2nc(-c3ccccc3)nn2C1`
**A:** 3000

**Q:** Please look up its IC50: `Cn1c(-c2ccccc2F)nc2c(N)nc(C#CC3(O)CCCCC3)nc21`
**A:** 77

**Q:** Please look up its IC50: `Cn1c(-c2ccc(Cl)cc2)nc2c(N)nc(C#CC3(O)CCCCC3)nc21`
**A:** 500

* * *

Kindly state IC50 for each of the entries shown.
# system name: Adenosine receptor A1 (Rattus norvegicus)
# Sequence (P25099 whole entry): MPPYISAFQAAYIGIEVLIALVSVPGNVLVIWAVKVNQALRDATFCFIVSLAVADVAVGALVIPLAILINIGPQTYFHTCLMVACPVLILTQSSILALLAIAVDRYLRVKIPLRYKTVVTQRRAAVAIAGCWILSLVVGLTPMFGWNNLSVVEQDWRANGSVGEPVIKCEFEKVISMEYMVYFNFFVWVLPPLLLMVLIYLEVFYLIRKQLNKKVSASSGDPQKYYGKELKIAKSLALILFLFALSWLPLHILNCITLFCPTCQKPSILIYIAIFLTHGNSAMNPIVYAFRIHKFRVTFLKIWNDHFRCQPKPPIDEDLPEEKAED
# test protocol: Inhibitory activity against cyclic AMP production in rat Adenosine A1 receptor assay
Entry rule: numbers only, all in nM.

**Q:** Param readout= IC50; system= Adenosine receptor A1 (Rattus norvegicus); entry= `CCCn1c(=O)c2c(nc(/C=C/c3ccc(OC)c(OC)c3)n2C)n(CCC)c1=O` ; returns value.
**A:** 62

**Q:** Param readout= IC50; system= Adenosine receptor A1 (Rattus norvegicus); entry= O=C(/C=C/c1c(-c2ccccc2)nn2ccccc12)N1CCCC[C@@H]1CCO [FK453] ; returns value.
**A:** 17.2

* * *

# system name: Adenosine receptor A2a (Homo sapiens)
# Sequence (P29274 whole entry): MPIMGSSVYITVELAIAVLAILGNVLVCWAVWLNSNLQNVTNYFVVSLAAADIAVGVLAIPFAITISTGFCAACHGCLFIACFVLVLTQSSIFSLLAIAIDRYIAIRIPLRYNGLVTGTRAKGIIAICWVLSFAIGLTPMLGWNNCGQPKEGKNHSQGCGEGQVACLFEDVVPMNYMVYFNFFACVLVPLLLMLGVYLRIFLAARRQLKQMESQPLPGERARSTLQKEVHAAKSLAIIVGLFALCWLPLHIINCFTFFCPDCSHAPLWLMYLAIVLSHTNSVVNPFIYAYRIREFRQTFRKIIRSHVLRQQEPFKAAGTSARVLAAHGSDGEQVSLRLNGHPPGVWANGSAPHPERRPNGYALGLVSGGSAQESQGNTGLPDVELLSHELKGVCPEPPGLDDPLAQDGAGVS
# test protocol: Binding Affinity towards Adenosine A2A receptor expressed in HEK293 cells versus [3H]CGS-21680
# Type: cell-based
measured property: Ki (µM)
Entry rule: numbers only, all in µM.

**Q:** Please look up its Ki: `Cn1c(-c2cccc(F)c2)nc2c(N)nc(C#CC(C)(C)O)nc21`
**A:** 0.0091

**Q:** Please look up its Ki: `Cn1c(-c2cccc(F)c2)nc2c(N)nc(C#CC3(O)CCCCC3)nc21`
**A:** 0.016

**Q:** Please look up its Ki: `Cn1c(-c2ccccc2F)nc2c(N)nc(C#CC3(O)CCCCC3)nc21`
**A:** 0.015

**Q:** Please look up its Ki: `Cn1c(-c2ccco2)nc2c(N)nc(C#CC3(O)CCCCC3)nc21`
**A:** 0.011

**Q:** Please look up its Ki: `CCC(O)(C#Cc1nc(N)c2nc(-c3cccc(F)c3)n(C)c2n1)CC`
**A:** 0.013

**Q:** Please look up its Ki: `Cn1c(-c2cccc(F)c2)nc2c(N)nc(C#CC3(O)CCCCCC3)nc21`
**A:** 0.019

**Q:** Please look up its Ki: `Cn1c(-c2cccc(C#N)c2)nc2c(N)nc(C#CC3(O)CCCCC3)nc21`
**A:** 0.013

* * *

# system name: UniProt:P0DMS8
# Sequence (P0DMS8 whole entry): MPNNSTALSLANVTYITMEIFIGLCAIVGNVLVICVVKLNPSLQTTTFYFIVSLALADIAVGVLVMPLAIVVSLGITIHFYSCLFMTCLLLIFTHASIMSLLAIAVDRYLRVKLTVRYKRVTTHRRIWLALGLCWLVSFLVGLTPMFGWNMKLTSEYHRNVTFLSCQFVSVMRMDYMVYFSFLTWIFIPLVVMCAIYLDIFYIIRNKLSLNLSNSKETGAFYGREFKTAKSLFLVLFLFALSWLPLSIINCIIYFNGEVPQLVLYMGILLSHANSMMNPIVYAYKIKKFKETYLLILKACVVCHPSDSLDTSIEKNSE
# test protocol: Inhibitory activity against cyclic AMP production in human adenosine A3 receptor assay
measured property: pIC50
Please report pIC50 as the negative decimal logarithm of the molar concentration, giving only the number.

**Q:** Please look up its pIC50: Cn1c(=O)c2[nH]c(-c3ccccc3)nc2n(C)c1=O [8-PHENYL THEOPHYLLINE]
**A:** 5.90

* * *

# system name: Adenosine receptor A2b (Rattus norvegicus)
# Sequence (P29276 whole entry): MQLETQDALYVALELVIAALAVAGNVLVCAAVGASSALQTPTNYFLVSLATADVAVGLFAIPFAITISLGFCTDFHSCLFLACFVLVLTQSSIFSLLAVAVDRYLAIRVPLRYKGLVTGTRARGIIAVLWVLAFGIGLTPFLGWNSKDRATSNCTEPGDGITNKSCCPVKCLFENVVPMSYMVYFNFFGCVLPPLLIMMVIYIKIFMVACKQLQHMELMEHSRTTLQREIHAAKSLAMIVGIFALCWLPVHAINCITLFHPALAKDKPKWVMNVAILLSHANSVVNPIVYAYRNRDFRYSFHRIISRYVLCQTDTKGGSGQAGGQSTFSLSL
# test protocol: Inhibitory activity on N-ethylcarboxamidoadenosine (NECA)-induced glucose production in primary cultured rat hepatocytes
measured property: IC50 (nM)
Entry rule: numbers only, all in nM.

**Q:** Please look up its IC50: `Cn1c(-c2cccc(F)c2)nc2c(N)nc(C#CC3(O)CCCC3)nc21`
**A:** 420

**Q:** Please look up its IC50: `Cn1c(-c2cccc(F)c2)nc2c(N)ncnc21`
**A:** 5300

**Q:** Please look up its IC50: `Cn1c(-c2ccccn2)nc2c(N)nc(C#CC3(O)CCCCC3)nc21`
**A:** 1300

**Q:** Please look up its IC50: `Cc1cccc(-c2nc3c(N)nc(C#CC4(O)CCCCC4)nc3n2C)c1`
**A:** 970

**Q:** Please look up its IC50: `Cn1cnc2c(N)nc(C#CC3(O)CCCCC3)nc21`
**A:** 4400

**Q:** Please look up its IC50: `CCC(O)(C#Cc1nc(N)c2nc(-c3cccc(F)c3)n(C)c2n1)CC`
**A:** 540

**Q:** Please look up its IC50: `Cn1c(-c2ccccc2)nc2c(N)nc(C#CC3(O)CCCCC3)nc21`
**A:** 760

**Q:** Please look up its IC50: `O=C(/C=C/c1c(-c2ccccc2)nn2ccccc12)N1CCCC[C@@H]1CCO`
**A:** 8100

**Q:** Please look up its IC50: `Cn1c(-c2cccc(C#N)c2)nc2c(N)nc(C#CC3(O)CCCCC3)nc21`
**A:** 410

**Q:** Please look up its IC50: `Cn1c(-c2cccc(Cl)c2)nc2c(N)nc(C#CC3(O)CCCCC3)nc21`
**A:** 490

**Q:** Please look up its IC50: `Cn1c(-c2cccs2)nc2c(N)nc(C#CC3(O)CCCCC3)nc21`
**A:** 750

**Q:** Please look up its IC50: `Cn1c(-c2cccc(F)c2)nc2c(N)nc(C#CC(C)(C)O)nc21`
**A:** 510

**Q:** Please look up its IC50: `COc1cccc(-c2nc3c(N)nc(C#CC4(O)CCCCC4)nc3n2C)c1`
**A:** 1600

* * *

Kindly state IC50 for each of the entries shown.
# system name: Adenosine receptor A2b (Homo sapiens, UniProt P29275)
# test protocol: Inhibitory activity against cyclic AMP production in human Adenosine A2B receptor assay
Entry rule: numbers only, all in µM.

**Q:** Param readout= IC50; system= Adenosine receptor A2b (Homo sapiens, UniProt P29275); entry= `Cn1c(=O)c2[nH]c(-c3ccccc3)nc2n(C)c1=O` ; returns value.
**A:** 0.21

**Q:** Param readout= IC50; system= Adenosine receptor A2b (Homo sapiens, UniProt P29275); entry= `COC(=O)C1=C2C=CN(C)C=C2c2nc(-c3ccccc3)nn2C1` ; returns value.
**A:** 3

* * *

# system name: Adenosine receptor A2a (Homo sapiens)
# test protocol: Binding Affinity for adenosine A2A receptor expressed in HEK293 cells compared to [3H]CGS-21680
# Assay type: cell-based
measured property: Ki

**Q:** Please look up its Ki: `COC(=O)C1=C2C=CN(C)C=C2c2nc(-c3ccccc3)nn2C1`
**A:** > 10 µM
